These entries and their values trace back to PubChem BioAssay.

EXPERIMENTAL_PROTOCOL: CREB reporter modulators without forskolin, primary screen, cell-based, PC12, CRE-LacZ reporter, unstimulated (AID 1145)
CONDITION_SET: no forskolin, luminescence, 4.5 h, higher = more signal, called active from +8 up or from −8 down
Rule: z-score of 0.4 or more gives Met; anything lower gives Not met.

Use the examples below as a reference point.
{"COMPOUND": "NC(=O)N1C(=O)C2C(C1=O)C1C=C(CCCO)C2C(C2CC2)N1Cc1cccc(OC(F)(F)F)c1 (stereo not given)", "ASSIGNED_CLASS": "Met"}
{"COMPOUND": "COCCOC(=O)N1C(=O)[C@@]2(c3cc(C#CCC(C(=O)OC)C(=O)OC)ccc31)[C@H](c1ccc(O)cc1)N1[C@H](c3ccccc3)[C@H](c3ccccc3)OC(=O)[C@H]1[C@@H]2C(=O)NC[C@H](O)c1ccccc1", "ASSIGNED_CLASS": "Not met"}
{"COMPOUND": "CCCNC(=O)[C@@]1(C)c2ccccc2C(=O)N(Cc2ccccc2)[C@H]1c1ccc(CO)cc1", "ASSIGNED_CLASS": "Not met"}

Is z-score at least 0.4? Consider CN(C)C(=O)[C@@]1(CCC(=O)OC(C)(C)C)N=C(c2ccc(OCCCO)cc2)O[C@H]1c1ccccc1CN=[N+]=[N-]
Not met

###

Recorded composite z-score values for a group of molecules are listed next.
STUDY_TARGET: Albumin (Bos taurus) (UniProt P02769)
Sequence (P02769 whole entry, looked up): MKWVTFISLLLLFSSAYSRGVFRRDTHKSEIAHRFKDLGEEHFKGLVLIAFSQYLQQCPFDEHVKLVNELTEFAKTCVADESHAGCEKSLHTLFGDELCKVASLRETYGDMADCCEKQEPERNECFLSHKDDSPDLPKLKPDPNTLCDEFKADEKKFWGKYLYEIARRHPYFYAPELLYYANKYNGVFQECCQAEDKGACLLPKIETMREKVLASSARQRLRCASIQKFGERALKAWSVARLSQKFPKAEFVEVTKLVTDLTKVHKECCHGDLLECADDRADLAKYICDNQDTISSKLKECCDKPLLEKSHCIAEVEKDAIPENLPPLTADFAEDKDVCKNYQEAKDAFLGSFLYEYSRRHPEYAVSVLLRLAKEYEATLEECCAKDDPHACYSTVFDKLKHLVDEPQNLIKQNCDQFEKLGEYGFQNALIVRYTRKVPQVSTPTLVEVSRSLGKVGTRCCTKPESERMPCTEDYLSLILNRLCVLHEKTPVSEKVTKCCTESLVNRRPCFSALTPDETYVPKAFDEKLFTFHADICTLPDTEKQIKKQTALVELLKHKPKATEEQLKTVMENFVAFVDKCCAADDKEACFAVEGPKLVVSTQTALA
EXPERIMENTAL_PROTOCOL: bovine serum albumin binders on microarray, profiling panel, artefact control for SMM control protein annotation, biochemical, small-molecule microarray, Alexa647 label, 635/667 nm fluorescence (AID 1118);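 note: score merges 667 nm emission intensity and signal-to-noise per printed compound spot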
CONDITION_SET: BSA-A647 binding, fluorescence 635 nm, higher = more signal
Simply state the number, no unit and no words.

{"MOLECULE": "CN1C=C(C(=O)OCCS(C)(=O)=O)C(C(=O)OCCS(C)(=O)=O)=CC(c2ccc(CO)cc2)=CC1c1cccs1 (stereo not given)", "composite z-score": 0.232}
{"MOLECULE": "C=C[C@@H](OC)[C@H](OC(=O)Nc1ccc(SC)cc1)c1ccc(OCCO)cc1", "composite z-score": 0.687}
{"MOLECULE": "O=C(O)[C@H]1C[C@H]2C(=O)N[C@@H](Cc3ccccc3)C(=O)N2[C@H]1c1cccc(OCCO)c1", "composite z-score": -1.09}
{"MOLECULE": "O=C(CS)NCCCCCNC(=O)[C@@H]1C[C@@H]2C(=O)N[C@@H](Cc3ccccc3)C(=O)N2[C@@H]1c1cccc(OCCO)c1", "composite z-score": -0.884}
{"MOLECULE": "Cc1nc2cc(Br)ccc2c(=O)n1Cc1cccc(O)c1", "composite z-score": 0.417}

Query composite z-score on Albumin (Bos taurus) (UniProt P02769) for CC=CC(O)C1C=CC2C(=O)NC(=O)C2N1Nc1ccccn1 (stereo not given)
0.456

Under Albumin (Bos taurus) (UniProt P02769): composite z-score value of COCC(=C=CC[C@H](O)c1cccc(OCCO)c1)C[C@H](O)COCc1ccccc1 ?
0.484

I'm curious: which composite z-score was measured for O=C1c2ccccc2[C@](Cc2ccccc2I)(C(=O)NC2CC2)[C@H](c2ccc(CO)cc2)N1Cc1ccccc1C(F)(F)F tested on Albumin (Bos taurus) (UniProt P02769)?
0.502

For Albumin (Bos taurus) (UniProt P02769), provide composite z-score of CCOC(=O)C1=CC[C@@H](c2ccccc2)N(S(=O)(=O)c2ccc(C)cc2)[C@H]1C=Cc1ccccc1 please.
0.725

For the record CCOC(=O)C1=CCC(c2ccco2)N(S(=O)(=O)c2ccc(C)cc2)C1 (stereo not given) , what value of composite z-score is listed for Albumin (Bos taurus) (UniProt P02769)?
0.769

Short answer please: composite z-score, Albumin (Bos taurus) (UniProt P02769), entry C=C/C=C/[C@@H]1C(=C)CN([C@@H](Cc2ccccc2)C(=O)OC)[C@H]1[C@@H](O)Cc1ccccc1
0.0797

Query composite z-score on Albumin (Bos taurus) (UniProt P02769) for COCCOC(=O)N1C(=O)[C@@]2(c3cc(C#CC4=CCCCC4)ccc31)[C@H](c1ccc(O)cc1)N1[C@H](c3ccccc3)[C@H](c3ccccc3)OC(=O)[C@H]1[C@@H]2C(=O)NC[C@H](O)c1ccccc1
0.613

Tell me reported composite z-score for CN1C(=O)C2C(C1=O)C1C=C(CCCO)C2C(C2CC2)N1Cc1cc2c(cc1Br)OCO2 (stereo not given) , tested with Albumin (Bos taurus) (UniProt P02769).
0.984

// map COCCOC(=O)N1C(=O)[C@@]2(c3cc(C#Cc4ccc(OC)cc4)ccc31)[C@H](C(=O)NC[C@H](O)c1ccccc1)[C@H]1C(=O)O[C@H](c3ccccc3)[C@H](c3ccccc3)N1[C@@H]2c1ccc(OCCO)cc1 to recorded composite z-score (system: Albumin (Bos taurus) (UniProt P02769))
0.101

Request body: readout composite z-score, system Albumin (Bos taurus) (UniProt P02769), query COCCOC(=O)N1C(=O)[C@@]2(c3cc(C#CCNC(N)=O)ccc31)[C@H](c1ccc(OCCO)cc1)N1[C@H](c3ccccc3)[C@H](c3ccccc3)OC(=O)[C@H]1[C@@H]2C(=O)NC[C@H](O)c1ccccc1 . Return the value.
0.633
